Cited source for all entries: ChEMBL document CHEMBL2311426

Test system: Staphylococcus aureus
MEASUREMENT_PROTOCOL: Antibacterial activity against Staphylococcus aureus MB2865 by turbidity method
Type: functional
STUDY_CONDITIONS: read-out: MIC100
Kindly supply the reported MIC values for the records listed here.
Value and unit, in that order.

Look up and state reported MIC for `CO/C(C)=C1/NC(=O)[C@H]([C@@H](C)O)NC(=O)c2csc(n2)-c2cc(O)c(-c3nc(CNC(=O)NCCN(C)C)cs3)nc2-c2csc(n2)[C@@H]2COC(=O)c3c4c5c(cccc5n3O)COC(=O)[C@@H](O[C@H]3C[C@](C)(O)[C@H](N(C)C)[C@H](C)O3)[C@@H](OC4)[C@H](NC(=O)c3csc1n3)c1nc(cs1)C(=O)N2`
0.125 mg/L

Look up and state reported MIC for `CO/C(C)=C1/NC(=O)[C@H]([C@@H](C)O)NC(=O)c2csc(n2)-c2cc(O)c(-c3nc(CNC(=O)NCCc4cnc[nH]4)cs3)nc2-c2csc(n2)[C@@H]2COC(=O)c3c4c5c(cccc5n3O)COC(=O)[C@@H](O[C@H]3C[C@](C)(O)[C@H](N(C)C)[C@H](C)O3)[C@@H](OC4)[C@H](NC(=O)c3csc1n3)c1nc(cs1)C(=O)N2`
0.125 mg/L
